test system: PC-3 prostate; assay: NCI-60 one-dose screen, 48 h (100 = growth as untreated, 0 = no growth, -100 = all killed); conditions: 10 µM unless noted
This is part of a sample that, as a whole, favours compounds with a hit. Of some 83,000 tested, about 20% had one in any assay.
observed-property: growth (%)
Report as a plain number; the unit % is understood.

Report measured growth; entry is `Cn1nc(C(F)(F)F)c(-c2ccc(Cl)c(C(F)(F)F)c2)c1-c1ccc(OCc2ccc(Cl)cc2)cc1O`
3.78

Read the entry COc1ccccc1CNC(=O)C1c2ccccc2C(=O)N(CC(C)C)C1c1cccs1 (stereo unspecified) and write its reported growth.
47.8

Supply reported growth belonging to this compound: `CCOC(=O)c1c2c(n3cccc(Cl)c13)C(=O)c1ncccc1C2=O`
53
